The reported numbers originate from paper PMC8248439.

# assayed-target: yeast 20S proteasome (yCP) β5 subunit (ChTL) (Saccharomyces cerevisiae, UniProt P23724+P30656)
# Construct: gene PRE2; yeast 20S proteasome core particle; with β6 subunit of yCP
# Sequence (P30656 76-287): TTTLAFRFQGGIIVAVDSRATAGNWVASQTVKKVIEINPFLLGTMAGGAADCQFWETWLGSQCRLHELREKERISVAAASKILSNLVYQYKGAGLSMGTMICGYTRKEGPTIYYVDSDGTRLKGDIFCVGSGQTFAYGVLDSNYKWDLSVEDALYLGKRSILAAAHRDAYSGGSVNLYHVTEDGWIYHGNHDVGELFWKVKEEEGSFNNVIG
# Sequence (P23724 20-241): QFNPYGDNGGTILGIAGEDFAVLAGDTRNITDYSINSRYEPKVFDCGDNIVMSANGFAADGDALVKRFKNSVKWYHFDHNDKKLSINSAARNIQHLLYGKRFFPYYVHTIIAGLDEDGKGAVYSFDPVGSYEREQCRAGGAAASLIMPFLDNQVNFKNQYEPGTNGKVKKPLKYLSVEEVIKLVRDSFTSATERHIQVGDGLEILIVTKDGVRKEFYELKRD
# method-description: X-ray crystal structure ([…] Å) and ChTL activity inhibition assay of yCP
# Assay type: biochemical
measure: pIC50
Quick note: pIC50 means taking -log10 of the concentration in moles per liter.

Query :: Fill in: pIC50 of CC1C=CC(=O)NCCC(O)CC(NC(=O)C(NC(=O)C=CC=Cc2ccccc2)C(C)O)C(=O)N1 (stereo not shown) is ___
Result :: 7.14

---

# assayed-target: yeast 20S proteasome (yCP) β2 subunit (TL) (Saccharomyces cerevisiae)
# Construct: gene PUP1; yeast 20S proteasome core particle
# Sequence (P25043 30-261): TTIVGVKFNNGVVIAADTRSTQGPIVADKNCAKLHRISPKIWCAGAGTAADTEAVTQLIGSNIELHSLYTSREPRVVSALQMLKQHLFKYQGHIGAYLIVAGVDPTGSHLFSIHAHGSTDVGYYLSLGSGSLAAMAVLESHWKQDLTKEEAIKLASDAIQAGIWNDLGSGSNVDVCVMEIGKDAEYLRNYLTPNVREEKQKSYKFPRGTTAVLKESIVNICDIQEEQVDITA
# method-description: X-ray crystal structure ([…] Å), mM soaking; weaker TL inhibition
# Assay type: biochemical
measure: IC50

Query :: Fill in: IC50 of CC1C=CC(=O)NCCC(O)CC(NC(=O)C(NC(=O)C=CC=Cc2ccccc2)C(C)O)C(=O)N1 (stereo not shown) is ___
Result :: > 0.2 µM
